Would you mind telling me the reported %Inh of each entry?
System: BRAF
Conditions: concentration: 1 μM, replicates: in singlicate; n = 1;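 note: KINOMEscan kinase panel screen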
Give bare numbers, in %.

Some solved cases for reference:
1. NC(=O)c1sc(-n2cnc3ccccc32)cc1OCc1ccccc1F : 0
2. O=C(CCO)NCCn1ccc2ncnc(Nc3ccc(Oc4cccc(C(F)(F)F)c4)c(Cl)c3)c21 : 0
3. Nc1nc(-c2ccccn2)c(-c2ccnc3ccccc23)s1 : 0

For each of the compounds below, state %Inh.
1. Nc1nc(-c2ccc3c(N)n[nH]c3c2)cc(N2CCCCC2)n1
2. Oc1ccc2ncnc(Nc3ccc(OCc4ccccc4)cc3)c2c1
3. Clc1cccc(-c2nc(Nc3ccncc3)c3ccccc3n2)c1
4. Cc1ccc(O)cc1Nc1cc(C(F)(F)F)nc2ccc(-c3ccncc3)cc12
5. O=C(Nc1ccccc1)Nc1ccc(Oc2ccc3nccn3n2)cc1
6. CNc1nccc(-c2c(-c3ccc(F)cc3)ncn2CCCN2CCOCC2)n1
7. Nc1n[nH]c2nnc(-c3ccccc3)cc12
8. FC(F)(F)c1ccc(-c2cc(-c3c[nH]nc3-c3ccccn3)ccn2)cc1

Response:
[0, 0, 0, 0, 0, 6, 0, 0]

For each of the compounds below, state %Inh.
1. Fc1ccc(Nc2nccc(-c3c(-c4ccc(Cl)cc4)nn4ncccc34)n2)cc1F
2. OCCOCCn1ccc2ncnc(Nc3ccc(Oc4cccc(Cl)c4)c(Cl)c3)c21
3. COC(=O)c1c(-c2ccccc2)c2cc(Cl)ccc2c(=O)n1Cc1ccc(S(C)(=O)=O)cc1

Response:
1: 37; 2: 0; 3: 65

====

Test system: VPS34
Construct: gene PIK3C3
Settings: concentration: 1 μM, replicates: in singlicate; n = 1
PROPERTY NAME: %Inh (%)
One number for each entry, in %.

1) COc1ccc(Nc2nccc(N3CCC(NC(=O)c4cccc(NC(C)=O)c4)C3)n2)cc1 (stereo not drawn) : 22

For each of the compounds below, state %Inh.
1. C[C@H]1CC[C@@H](C(=O)Nc2ccccc2)CN1c1cc(-c2ccc3c(N)n[nH]c3c2)nc(N)n1
2. CCCc1ccc(S(=O)(=O)NC2CCN(c3ccnc(Nc4ccc(OC)cc4)n3)C2)cc1 (stereo not drawn)
3. CC(=O)Nc1n[nH]c2ncc(-c3ccccc3)cc12
4. Nc1n[nH]c2nnc(-c3ccccc3)cc12
5. Fc1cccc(COc2ccc(Nc3ncnc4sc(-c5ccc[nH]5)cc34)cc2Cl)c1

Response:
1: 0; 2: 36; 3: 7; 4: 0; 5: 0

====

Tested on: EPHB2
Details: concentration: 1 μM, replicates: in singlicate; n = 1
Would you mind telling me the reported %Inh of each entry?
Answers are plain numbers, in %.

Some solved cases for reference:
1. Cc1cccc(-c2nc(Nc3ccc4[nH]nnc4c3)c3ccccc3n2)n1 : 0
2. COC(=O)c1c(-c2ccccc2)c2cc(Cl)ccc2c(=O)n1Cc1ccc(S(C)(=O)=O)cc1 : 18
3. N#Cc1ccc(Oc2ccc(Nc3ncnc4cc[nH]c34)cc2Cl)cc1 : 8
4. CCC(CC)(CC)n1cnc2c(N)ncnc21 : 0
5. Nc1nc(-c2ccccn2)c(-c2ccnc3ccccc23)s1 : 14
6. CSc1ccc(NC2=C(c3ccccc3Cl)C(=O)NC2=O)cc1 : 15
7. CN1CCC(n2cnc(-c3ccc(F)cc3)c2-c2ccnc(NC3CCNCC3)n2)CC1 : 11
8. FC(F)(F)c1cc(Nc2nccc(-c3c(-c4ccc(Cl)cc4)nn4ncccc34)n2)ccc1Cl : 0

For each of the compounds below, state %Inh.
1. O=C(c1ccc(-c2cc(-c3c[nH]nc3-c3ccccn3)ccn2)cc1)N1CCCC1
2. CS(=O)(=O)CCNCc1ccc(-c2ccc3ncnc(Nc4ccc(OCc5ccccc5)c(Cl)c4)c3c2)o1.Cl
3. Cc1ccc(NC(=O)c2cccc(C#N)c2)cc1-c1ccc(C(=O)Nc2ccncc2)cc1
4. NC(=O)c1sc(-n2cnc3ccccc32)cc1OCc1ccccc1F
5. CCn1c(-c2ccncc2)nc2cnccc21

Response:
[19, 0, 13, 0, 16]

For each of the compounds below, state %Inh.
1. Clc1cccc(-c2nc(Nc3ccncc3)c3ccccc3n2)c1
2. COc1cc2ncnc(Nc3ccc(OCc4ccccc4Br)c(Cl)c3)c2cc1OC.Cl
3. Nc1nc(-c2ccc3c(N)n[nH]c3c2)cc(N2CCC[C@@H](C(=O)Nc3ccccc3)C2)n1.O=C(O)C(F)(F)F.O=C(O)C(F)(F)F
4. Cn1ccc2ncnc(Oc3ccc(NC(=O)Nc4cccnc4)c(Cl)c3)c21

Response:
1. 2
2. 5
3. 0
4. 2

Data provenance is paper PMC5540273.
